// data source = PubChem BioAssay (EPA / NIEHS)

- Read-out: Protein phosphatase 2A (PPP2R4), PTPA (gene 5524)
- Assay Protocol: LTEA_HepaRG_PPP2R4: Life Technologies and Expression Analysis (LTEA) Assay for Protein phosphatase 2A (PPP2R4) using HepaRG (AID 2283522)
- Run Conditions: mRNA level, 48 h; actives raise or lower the signal
The source made the active and inactive calls. Rule for the calls: active = hit-call score of the fitted dose curve at least 0.9, where 1 is the maximum; inactive = score below 0.9.
Parameter call: string, one of yes (active), no (inactive)

Example results:
Prompt: Field: outcome | Entry: `CCOC(=O)NCCOc1ccc(Oc2ccccc2)cc1`
Completion: no

Prompt: Just curious, what result did `CCCCCOC(=O)COc1cc(N2C(=O)C3=C(CCCC3)C2=O)c(F)cc1Cl` get here?
Completion: no

Prompt: What was the test verdict on CCCCC(CC)CN1C(=O)C2C3C=CC(C3)C2C1=O (centres undefined) ?
Completion: yes

Prompt: Entry `CC(C)CCCCCCc1ccc(O)cc1` : call = ?
Completion: no

Prompt: What is the recorded call for this compound in the test? `O=C(c1ccccc1)C1CCCCC1`
Completion: no

More entries:
Prompt: Which outcome was assigned to CCCCCCC(C)OC(=O)COc1nc(F)c(Cl)c(N)c1Cl (centres undefined) in this test?
Completion: no

Prompt: Per the records of this test, what outcome belongs to `OB(O)O` ?
Completion: no

====

- Read-out: Tumor necrosis factor receptor superfamily member 6 (Homo sapiens) (UniProt P25445)
- Assay Protocol: LTEA_HepaRG_FAS: Life Technologies and Expression Analysis (LTEA) Assay for Fas cell surface death receptor (FAS) using HepaRG (AID 2283447)
- Run Conditions: mRNA level, 48 h; actives raise or lower the signal
Active and inactive are the calls of the source. How the source made its calls: active means hit-call score of the fitted dose curve at least 0.9, where 1 is the maximum; inactive means score below 0.9.
Thanks in advance; please answer with one of these: active, inactive

Prompt: Record request — test call for `CCCOC(=O)c1ccc(C(=O)OCCC)nc1`
Completion: inactive

More entries:
Prompt: # lookup: test call for `CCCOC(=O)NCCCN(C)C`
Completion: inactive

Prompt: Recorded call for CCOC(=O)C(C)Oc1ccc(Oc2cnc3cc(Cl)ccc3n2)cc1 (stereo unspecified) ?
Completion: inactive

Prompt: How was `N#CSCSc1nc2ccccc2s1` classified in this test?
Completion: inactive

Prompt: What outcome does the record of this test show for `CSC(=O)c1cccc2nnsc12` ?
Completion: inactive

Prompt: Hello, I am checking results. What call was entered for `O=C(Nc1ccc([N+](=O)[O-])cc1Cl)c1cc(Cl)ccc1O` ?
Completion: active

====

- Assay Protocol: BSK_3C_Vis: BioMAP Diversity Plus: 3C Assay for Morphology Visualization (AID 2283025);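 note: fitted both ways so gain or loss versus DMSO counts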;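 for AC50: light microscopy image of cell morphology used as background control; cells imaged 24 h after dosing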
- Run Conditions: primary human endothelial cells (HUVEC)
Activity calls are given as the source filed them. How the source made its calls: active means hit-call score of the fitted dose curve at least 0.9, where 1 is the maximum; inactive means score below 0.9.
Endpoint Label: AC50

// AC50 lookup, compound = `COc1nc(C)nc(NC(=O)NS(=O)(=O)c2ccccc2OCCCl)n1` , result: inactive

The reported value for `C#C[C@]1(O)CC[C@H]2[C@@H]3CCC4=CC(=O)CC[C@@H]4[C@H]3CC[C@@]21CC` in terms of AC50 is inactive

Entry CCC(O)=C1C(=O)CC(C(=O)O)CC1=O (stereo not given) , AC50 reported as inactive

// recorded AC50 for `CCN(Cc1c(F)cccc1Cl)c1c([N+](=O)[O-])cc(C(F)(F)F)cc1[N+](=O)[O-]` : 13.7 µM (active)

Further cases:
// AC50 lookup, compound = `COC(=O)c1ccc(CNS(C)(=O)=O)cc1S(=O)(=O)NC(=O)Nc1nc(OC)cc(OC)n1` , result: inactive

====

- System Under Test: PGR (gene 5241) (UniProt P06401)
- Sequence (P06401 whole entry, looked up): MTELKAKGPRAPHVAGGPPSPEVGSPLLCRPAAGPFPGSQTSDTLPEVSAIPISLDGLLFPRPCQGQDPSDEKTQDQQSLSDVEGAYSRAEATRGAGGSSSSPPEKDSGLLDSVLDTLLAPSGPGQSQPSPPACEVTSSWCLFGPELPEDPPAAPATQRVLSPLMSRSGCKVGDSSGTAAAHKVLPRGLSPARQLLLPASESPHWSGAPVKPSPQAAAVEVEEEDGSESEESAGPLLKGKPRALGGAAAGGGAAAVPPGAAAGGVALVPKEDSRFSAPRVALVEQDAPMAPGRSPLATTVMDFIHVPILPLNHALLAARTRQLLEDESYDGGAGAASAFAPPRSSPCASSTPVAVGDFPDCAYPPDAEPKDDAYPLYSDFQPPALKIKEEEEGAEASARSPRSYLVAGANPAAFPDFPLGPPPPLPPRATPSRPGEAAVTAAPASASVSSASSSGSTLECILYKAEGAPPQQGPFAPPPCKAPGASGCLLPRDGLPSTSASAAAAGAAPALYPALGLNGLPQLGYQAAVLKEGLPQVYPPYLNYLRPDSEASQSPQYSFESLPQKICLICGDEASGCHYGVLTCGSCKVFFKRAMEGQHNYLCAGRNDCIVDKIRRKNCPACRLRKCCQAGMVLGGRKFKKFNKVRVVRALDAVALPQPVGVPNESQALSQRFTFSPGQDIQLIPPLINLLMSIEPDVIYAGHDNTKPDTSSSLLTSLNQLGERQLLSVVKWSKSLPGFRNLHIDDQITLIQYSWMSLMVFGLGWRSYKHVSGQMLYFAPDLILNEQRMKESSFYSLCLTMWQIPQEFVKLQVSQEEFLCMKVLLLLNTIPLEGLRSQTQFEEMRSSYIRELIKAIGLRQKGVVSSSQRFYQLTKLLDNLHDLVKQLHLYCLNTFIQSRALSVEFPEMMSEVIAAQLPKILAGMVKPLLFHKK
- Assay Protocol: TOX21_PR_LUC_Followup_Antagonist: Tox21 HEK293 Progesterone Receptor (PR) Antagonism Luciferase Follow-Up Assay (AID 2283938);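 note: curve fitted upward as signal gain over DMSO baseline despite antagonist label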
Inconclusive results are not listed. The source made the active and inactive calls. Rule for the calls: active = hit-call score of the fitted dose curve at least 0.9, where 1 is the maximum; inconclusive = response in the unintended direction; inactive = score below 0.9.
// one of active, inactive, no free text

Prompt: Give the logged outcome of this assay for the following compound: `O=C(c1ccc(O)cc1O)c1ccc(O)cc1O`
Completion: active

Prompt: Hello, I am checking results. What call was entered for `CC(C)CCCCCCc1ccc(O)cc1` ?
Completion: inactive

Others:
Prompt: For C[C@]12CC[C@@H]3c4ccc(O)cc4C[C@@H](CCCCCCCCCS(=O)CCCC(F)(F)C(F)(F)F)[C@H]3[C@@H]1CC[C@@H]2O (some centres undefined) , what call appears in the results of this test?
Completion: active

Prompt: Could you please tell me the result logged for `CC(C)(c1ccc(O)cc1)c1ccc(O)cc1` in this assay?
Completion: active

====

- Read-out: Interleukin-8 (IL8), CXCL8 (gene 3576)
- Assay Protocol: BSK_LPS_IL8: BioMAP Diversity Plus: LPS Assay for Interleukin-8 (IL8) Biomarker Activity (AID 2283078)
- Run Conditions: primary human HUVEC with PBMC; actives raise or lower the signal
The source made the active and inactive calls. How the source made its calls: active means hit-call score of the fitted dose curve at least 0.9, where 1 is the maximum; inactive means score below 0.9.
A correct response names exactly one class from active, inactive

Prompt: Answer briefly: the call reported for `C#C[C@]1(O)CC[C@H]2[C@@H]3CCC4=CC(=O)CC[C@@H]4[C@H]3CC[C@@]21CC` in this assay.
Completion: inactive

Prompt: Please indicate how the test categorized `N[C@@H](Cc1cc(I)c(Oc2ccc(O)c(I)c2)c(I)c1)C(=O)O` .
Completion: inactive

Prompt: Short answer needed: outcome of this test for `O=C(O)C1(C(=O)Nc2ccc(Cl)cc2Cl)CC1` ?
Completion: inactive

Prompt: # fetch the recorded call for `OB(O)O` here
Completion: inactive

Prompt: Each compound tested received a call. Report the one for `Cc1nn(C)c(Oc2ccccc2)c1C=NOCc1ccc(C(=O)OC(C)(C)C)cc1` .
Completion: active

Prompt: What did the test return for `CC(=O)S[C@@H]1CC2=CC(=O)CC[C@]2(C)[C@H]2CC[C@@]3(C)[C@@H](CC[C@@]34CCC(=O)O4)[C@H]12` ?
Completion: active

New cases:
Prompt: Status in this test for `CN(C)C(=O)Nc1ccc(Cl)c(Cl)c1` ?
Completion: inactive

Prompt: Entry `Oc1ccc(C(c2ccc(O)cc2)C(Cl)(Cl)Cl)cc1` : call = ?
Completion: active

====

- Read-out: Lipoprotein lipase (LPL), LPL (gene 4023)
- Assay Protocol: LTEA_HepaRG_LPL: Life Technologies and Expression Analysis (LTEA) Assay for Lipoprotein lipase (LPL) using HepaRG (AID 2283515)
- Run Conditions: mRNA level, 48 h; actives raise or lower the signal
Active and inactive are the calls of the source. Rule for the calls: active = hit-call score of the fitted dose curve at least 0.9, where 1 is the maximum; inactive = score below 0.9.
Endpoint Label: AC50

Sample records with AC50:
get_value(item= `CCNc1nc(N)nc(Cl)n1` , readout=AC50) returns inactive

# AC50 of `CCCOC(=O)c1ccc(C(=O)OCCC)nc1` = inactive

// sample CCCCC(CC)CN1C(=O)C2C3C=CC(C3)C2C1=O (stereo not given) , its AC50 was 58.4 µM (active)

Value of AC50 reported for the molecule CCCCC(CC)COC(=O)c1ccccc1C(=O)O (stereo not given) is inactive

Measured AC50, CCOC(=O)C(C)Oc1ccc(Oc2cnc3cc(Cl)ccc3n2)cc1 (stereo not given) : inactive

More entries:
Reported AC50 ( `CC(=O)[C@H]1CC[C@H]2[C@@H]3CCC4=CC(=O)CC[C@]4(C)[C@H]3CC[C@]12C` ) = inactive

// field: AC50; key: `CC(=O)S[C@@H]1CC2=CC(=O)CC[C@]2(C)[C@H]2CC[C@@]3(C)[C@@H](CC[C@@]34CCC(=O)O4)[C@H]12` ; value = inactive

====

- Read-out: Interleukin-1 alpha (IL1a), IL1A (gene 3552)
- Assay Protocol: BSK_KF3CT_IL1a: BioMAP Diversity Plus: KF3CT Assay for Interleukin-1 alpha (IL1a) Biomarker Activity (AID 2283070)
- Run Conditions: primary human keratinocytes with fibroblasts; actives raise or lower the signal
- Procedure: BSK_KF3CT is a cell-based, multiplexed-readout assay that uses keratinocytes and foreskin fibroblasts, a human skin primary cell co-culture, with measurements taken at 24 hours after chemical dosing in a 96-well plate.BSK_KF3CT_IL1a is an assay component measured in the BSK_KF3CT assay. It measures IL-1a antibody related to regulation of gene expression using ELISA technology.Data from the assay component BSK_KF3CT_IL1a was analyzed into 1 assay endpoint. […]
Active and inactive are the calls of the source. How the source made its calls: active means hit-call score of the fitted dose curve at least 0.9, where 1 is the maximum; inactive means score below 0.9.
Select the correct class. Options are active, inactive and nothing else.

Consider the following illustrative entries.
Prompt: Assay outcome for `CCOC(=O)c1ccc(O)cc1` : what was it?
Completion: inactive

Prompt: Dear all, I need the recorded test outcome for `COc1nc(C)nc(NC(=O)NS(=O)(=O)c2ccccc2OCCCl)n1` , thank you.
Completion: inactive

Prompt: Field: outcome | Entry: `CSC(=O)c1cccc2nnsc12`
Completion: inactive

Further cases:
Prompt: So what was the verdict on C[C@]12CC[C@@H]3c4ccc(O)cc4C[C@@H](CCCCCCCCCS(=O)CCCC(F)(F)C(F)(F)F)[C@H]3[C@@H]1CC[C@@H]2O (stereo partly specified) in this test?
Completion: inactive

Prompt: Each compound tested received a call. Report the one for `CCSC(=O)N(CC(C)C)CC(C)C` .
Completion: inactive

Prompt: Dear all, I need the recorded test outcome for `CCOC(=O)COc1cc(-n2ncc(C(F)(F)F)c(C)c2=O)c(F)cc1Cl` , thank you.
Completion: inactive
